Attribution: PubChem BioAssay AID2810

# test-description: modulators of CD8 T cell-vesicle binding, confirmation, cherry-picked primary hits, two concentrations (AID 2810);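 note: ratio of mean FL2 vesicle stain of CD8+ cells to that row's control; lower values mean blocking of vesicle binding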
# study-conditions: 2C CD8+ T cell-vesicle binding, flow cytometry; response; at 7.7 µM
Out of some 1,200 compounds screened, about 65 (5%) were called active. The entries come from a sample that favours actives as a whole.

[
  {
    "molecule": "CCOc1ccc(/C(O)=C2/C(=O)C(=O)N(CCN(CC)CC)C2c2cccs2)cc1 (configuration not stated)",
    "percent response (vesicle binding), %": 187
  },
  {
    "molecule": "CCCCCCCCn1c2c(c(=N)c3c1CCC3)CCCC2",
    "percent response (vesicle binding), %": 54.6
  },
  {
    "molecule": "O=C(NCCN1CCN(c2ccccc2)CC1)c1cccc(Br)c1",
    "percent response (vesicle binding), %": 278
  },
  {
    "molecule": "O=C(OCCOc1cccc(Cl)c1)c1ccc(F)c(S(=O)(=O)N2CCOCC2)c1",
    "percent response (vesicle binding), %": 333
  },
  {
    "molecule": "CCOC(=O)C1CCCN(S(=O)(=O)c2ccc(F)c(C(=O)Nc3ccc(F)c(F)c3)c2)C1 (configuration not stated)",
    "percent response (vesicle binding), %": 105
  },
  {
    "molecule": "Cc1cccc(Nc2nc(-c3ccccn3)cs2)n1",
    "percent response (vesicle binding), %": 538
  },
  {
    "molecule": "CCCCn1nc(C(=O)N2CCN(S(=O)(=O)c3ccccc3)CC2)c2ccccc2c1=O",
    "percent response (vesicle binding), %": 484
  },
  {
    "molecule": "COCC(C)NC(=O)CSc1nc2cc(S(=O)(=O)N3CCCCC3)ccc2o1 (configuration not stated)",
    "percent response (vesicle binding), %": 364
  },
  {
    "molecule": "Cc1ccsc1C(=O)OCC(=O)N1CCN(c2ccccc2)CC1",
    "percent response (vesicle binding), %": 143
  },
  {
    "molecule": "Cc1ccc(CSc2ccc(S(=O)(=O)N3CCCC3)cn2)cc1",
    "percent response (vesicle binding), %": 237
  },
  {
    "molecule": "COc1cc(CNCc2cccnc2)ccc1OCC(=O)NC1CCCCC1",
    "percent response (vesicle binding), %": 303
  },
  {
    "molecule": "COc1ccc(NC(=O)C2CCC(C(C)(C)C)CC2)cc1S(=O)(=O)N1CCCCC1 (configuration not stated)",
    "percent response (vesicle binding), %": 135
  },
  {
    "molecule": "Cc1ccc(S(=O)(=O)N2CCC(NC(=O)c3ccccc3)CC2)cc1",
    "percent response (vesicle binding), %": 558
  },
  {
    "molecule": "COc1cc(CNCCc2ccc(S(N)(=O)=O)cc2)ccc1OCC(=O)N1CCCCC1",
    "percent response (vesicle binding), %": 370
  },
  {
    "molecule": "CCc1ccc(NC(=S)N(CCCN2CCOCC2)Cc2ccccn2)cc1",
    "percent response (vesicle binding), %": 168
  },
  {
    "molecule": "COc1cc2c(-c3cc(F)cc(F)c3)c(-c3ccsc3)oc(=O)c2cc1OC",
    "percent response (vesicle binding), %": 271
  },
  {
    "molecule": "Cc1c(C(=O)NCCSCc2c(F)cccc2Cl)cnn1-c1ccc(Cl)cc1",
    "percent response (vesicle binding), %": 229
  },
  {
    "molecule": "COc1ccc(NS(=O)(=O)c2cc(NC(=O)C3CC3)ccc2N2CCCCC2)cc1",
    "percent response (vesicle binding), %": 138
  },
  {
    "molecule": "CCCc1cc(=O)[nH]c(SCC(=O)N2c3ccccc3CC2C)n1 (configuration not stated)",
    "percent response (vesicle binding), %": 285
  },
  {
    "molecule": "CCOC(=O)C1CCN(C(=O)c2cccc(S(=O)(=O)NCc3ccccc3)c2)CC1",
    "percent response (vesicle binding), %": 128
  },
  {
    "molecule": "O=C(NCC1CCCO1)C(=O)NCC(c1ccco1)N1CCN(c2ccc(F)cc2)CC1 (configuration not stated)",
    "percent response (vesicle binding), %": 266
  },
  {
    "molecule": "COc1ccc(CCCC(=O)NC(C)c2ccccc2)cc1 (configuration not stated)",
    "percent response (vesicle binding), %": 104
  },
  {
    "molecule": "CC1CCN(S(=O)(=O)c2csc(C(=O)Nc3ccccc3)c2)CC1",
    "percent response (vesicle binding), %": 415
  },
  {
    "molecule": "Cc1ccc(S(=O)(=O)N(C)CC(=O)Nc2nc3ccccc3s2)cc1",
    "percent response (vesicle binding), %": 371
  },
  {
    "molecule": "Cc1ccc(-n2ncc3c(N4CCCC(C)C4)ncnc32)c(C)c1 (configuration not stated)",
    "percent response (vesicle binding), %": 283
  },
  {
    "molecule": "O=C(COC(=O)C1(c2cccc(F)c2)CCCC1)NCc1ccc2c(c1)OCO2",
    "percent response (vesicle binding), %": 82.7
  },
  {
    "molecule": "COc1ccc2nc(SCC(=O)Nc3ccc4c(c3)OCCO4)[nH]c2c1",
    "percent response (vesicle binding), %": 164
  },
  {
    "molecule": "Cc1ccc(C(=O)NC2CCCc3c2cnn3-c2ccc(F)cc2F)cn1 (configuration not stated)",
    "percent response (vesicle binding), %": 658
  },
  {
    "molecule": "Cc1ccc(/C=N/Nc2ccc(F)cc2F)s1",
    "percent response (vesicle binding), %": 159
  },
  {
    "molecule": "Cc1ccc(C(C)n2cc(C(=O)NCCN3CCN(C)CC3)nn2)cc1 (configuration not stated)",
    "percent response (vesicle binding), %": 155
  },
  {
    "molecule": "CC(C)(CNC(=O)c1cc2c(s1)CCCC2)N1CCOCC1",
    "percent response (vesicle binding), %": 164
  },
  {
    "molecule": "COc1ccc(N(CC(=O)O)S(C)(=O)=O)cc1OC",
    "percent response (vesicle binding), %": 691
  }
]
